# tgt: Glucagon receptor (Homo sapiens)
# Sequence (P47871 whole entry): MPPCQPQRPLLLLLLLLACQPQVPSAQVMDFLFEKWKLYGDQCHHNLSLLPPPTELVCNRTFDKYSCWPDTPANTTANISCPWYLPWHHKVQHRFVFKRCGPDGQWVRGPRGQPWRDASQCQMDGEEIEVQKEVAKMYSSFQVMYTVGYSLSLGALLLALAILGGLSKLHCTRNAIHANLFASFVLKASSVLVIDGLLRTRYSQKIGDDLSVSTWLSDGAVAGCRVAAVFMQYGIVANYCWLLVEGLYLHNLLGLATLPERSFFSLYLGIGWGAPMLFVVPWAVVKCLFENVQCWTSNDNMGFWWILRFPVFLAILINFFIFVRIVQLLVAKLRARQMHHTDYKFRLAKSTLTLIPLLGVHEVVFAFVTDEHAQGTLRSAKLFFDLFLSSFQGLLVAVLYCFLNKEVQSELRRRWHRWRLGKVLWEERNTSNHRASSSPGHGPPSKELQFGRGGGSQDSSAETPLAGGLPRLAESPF
# protocol.summary: Agonist activity at N-terminal HA-tagged human GCGR expressed in CHO cells co-transfected with pcDNA3.0 assessed as effect on cAMP accumulation incubated for 30 mins by microplate reader analysis
recorded.endpoint: EC50

Enquiry: Quick one: EC50 of O=C(O)c1ccc2nc(CN3CC=C(c4cccc(OCc5ccc(C6CC(F)(F)C6)cc5F)n4)CC3)n(C[C@@H]3CCO3)c2n1 ?
Return: > 20 µM

* * *

# protocol.summary: in vivo
# stated.conditions: Sprague-Dawley, rat, po, 5 mg/kg
Known log10 of Tmax at 24 h of a selection of molecules
Scale: decimal log of Tmax at 24 h, Tmax at 24 h in h.

Field: example entries. Status: answers known.
[
  {
    "structure.string": "N#Cc1ccc(COc2cccc(C3CCN(Cc4nc5ccc(C(=O)O)cc5n4C[C@@H]4CCO4)CC3)n2)c(F)c1",
    "log10 of Tmax at 24 h": 0.12
  },
  {
    "structure.string": "O=C(O)c1ccc2nc(Cc3ccc(-c4cccc(OCc5ccc(C6CC(F)(F)C6)cc5F)n4)cc3F)n(C[C@@H]3CCO3)c2c1",
    "log10 of Tmax at 24 h": 0.12
  },
  {
    "structure.string": "O=C(O)c1cc(F)c2nc(CN3CCC(c4cccc(OCc5ccc(C6CC(F)(F)C6)cc5F)n4)CC3)n(C[C@@H]3CCO3)c2c1",
    "log10 of Tmax at 24 h": 0.30
  }
]

Enquiry: Quick one: log10 of Tmax at 24 h of COc1cc(C(=O)O)cc2c1nc(CN1CC=C(c3cccc(OCc4ccc(C5CC(F)(F)C5)cc4F)n3)CC1)n2C[C@@H]1CCO1 ?
Return: -0.04

Enquiry: Quick one: log10 of Tmax at 24 h of O=C(O)c1ccc2nc(CN3CCC(Oc4cccc(COc5ccc6cnn(CC(F)F)c6c5F)n4)CC3)n(C[C@@H]3CCO3)c2n1 ?
Return: -0.72

Enquiry: Quick one: log10 of Tmax at 24 h of O=C(O)c1ccc2nc(CN3CCC(Oc4cccc(COc5ccc6cnn(CC(F)F)c6c5)n4)CC3)n(C[C@@H]3CCO3)c2n1 ?
Return: -0.44

Enquiry: Quick one: log10 of Tmax at 24 h of O=C(O)c1ccc2nc(CN3CC=C(c4cccc(OCc5ccc(C6CC(F)(F)C6)cc5F)n4)CC3)n(C[C@@H]3CCO3)c2n1 ?
Return: 0.43

Data credit: ChEMBL document CHEMBL6109144
